protocol: Rat in vivo pharmacokinetics and brain distribution (i.v. cassette)
stated.conditions: plasma, iv; rat i.v. cassette injection; volume of distribution at steady state; read-out: Rat Vss
readout.label: Vd (L/kg)
Express it in L/kg; write the number only.

Query string: Data request, read-out Vd, for CC(=O)N[C@H]1CC[C@@H](n2ncc(Cl)c2C(=O)Nc2ncc(C#Cc3ccccc3)cc2C)CC1 [Compound 12]
Result string: 4.7

* * *

tested.on: human TREK-1 (Homo sapiens, UniProt O95069)
Construct: expressed in transfected cells
Sequence (O95069 whole entry): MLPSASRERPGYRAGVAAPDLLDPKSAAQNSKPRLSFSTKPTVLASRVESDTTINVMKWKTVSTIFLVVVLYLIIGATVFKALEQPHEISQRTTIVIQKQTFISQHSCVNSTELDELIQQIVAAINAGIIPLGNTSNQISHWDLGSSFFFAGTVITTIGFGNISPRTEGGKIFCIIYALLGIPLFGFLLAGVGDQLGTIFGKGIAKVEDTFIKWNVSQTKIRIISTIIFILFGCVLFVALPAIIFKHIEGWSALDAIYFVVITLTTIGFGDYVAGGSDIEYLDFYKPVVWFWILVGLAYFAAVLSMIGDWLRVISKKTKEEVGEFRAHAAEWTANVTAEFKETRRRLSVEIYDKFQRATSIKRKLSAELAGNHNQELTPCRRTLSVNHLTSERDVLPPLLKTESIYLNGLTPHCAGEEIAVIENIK
protocol: TREK-1 Thallium flux assay, Method 2
Type: cell-based
stated.conditions: measured by Method 2 of TREK1 Thalium flux assay (footnote *12); read-out: Tl+ Assay IC50
readout.label: IC50 (nM)
Quick note: give the figure in nM, leave out the unit.

Query string: Quick one: IC50 of Cc1cc(C#Cc2ccccc2)cnc1NC(=O)c1c(Cl)cnn1[C@H]1CCn2nccc2C1 (single isomer, unassigned) [Compound 457] ?
Result string: 37

Query string: Reported IC50, molecule Cc1cc(C#Cc2ccccc2)cnc1NC(=O)c1c(Cl)cnn1[C@@H]1CCN(C(=O)C2CC2)C1 [Compound 455] : ____
Result string: 140

Query string: Look up IC50 for this molecule: Cc1cc(C#Cc2ccccc2)cnc1NC(=O)c1c(Cl)cnn1[C@H]1CCN(C(=O)C2CC2)C1 [Compound 454]
Result string: 130

Query string: Consider the molecule shown here: Cc1cc(C#Cc2ccccc2)cnc1NC(=O)c1c(Cl)cnn1[C@H]1CCn2nccc2C1 (single isomer, unassigned) [Compound 456] What is its recorded IC50?
Result string: 120

src = patent US20240182445A1
